Test system: NCI-H1563
Assay: relative viability (nuclei count vs DMSO), 5 days (fraction); higher = more cells survive
Details: first compound 8 µM
Each entry below carries its recorded relative viability.

Query block: Please give the measured relative viability for this compound: O=c1cc(-c2cccc3c2Sc2ccccc2S3)oc(N2CCOCC2)c1 + COc1cc2c(Oc3ccc(NC(=O)C4(C(=O)Nc5ccc(F)cc5)CC4)cc3F)ccnc2cc1OCCCN1CCOCC1 [Foretinib] (partner 0.25 µM)
Result block: 0.91

***
Query block: Please give the measured relative viability for this compound: O=c1cc(-c2cccc3c2Sc2ccccc2S3)oc(N2CCOCC2)c1 + Cc1nc(Nc2ncc(C(=O)Nc3c(C)cccc3Cl)s2)cc(N2CCN(CCO)CC2)n1 [Dasatinib] (partner 0.075 µM)
Result block: 0.467

Query block: Please give the measured relative viability for this compound: O=c1cc(-c2cccc3c2Sc2ccccc2S3)oc(N2CCOCC2)c1 + COc1cccc2cc(-c3nc([C@H]4CC[C@H](C(=O)O)CC4)n4ncnc(N)c34)[nH]c12 [OSI-027] (partner 0.5 µM)
Result block: 0.676

Query block: Please give the measured relative viability for this compound: O=c1cc(-c2cccc3c2Sc2ccccc2S3)oc(N2CCOCC2)c1 + Nc1nc2[nH]cc(CCc3ccc(C(=O)N[C@@H](CCC(=O)O)C(=O)O)cc3)c2c(=O)[nH]1 [Pemetrexed] (partner 0.2 µM)
Result block: 0.787

Query block: Please give the measured relative viability for this compound: O=c1cc(-c2cccc3c2Sc2ccccc2S3)oc(N2CCOCC2)c1 + C[C@@H](Oc1cc(-c2cnn(C3CCNCC3)c2)cnc1N)c1c(Cl)ccc(F)c1Cl [Crizotinib] (partner 1 µM)
Result block: 0.887

Query block: Please give the measured relative viability for this compound: O=c1cc(-c2cccc3c2Sc2ccccc2S3)oc(N2CCOCC2)c1 + CS(=O)(=O)N1CCN(Cc2cc3nc(-c4cccc5[nH]ncc45)nc(N4CCOCC4)c3s2)CC1 [Pictilisib] (partner 1 µM)
Result block: 0.661

----------
System: NCI-H1793
Experiment: relative viability (nuclei count vs DMSO), 5 days (fraction); higher = more cells survive
Details: first compound 0.01 µM
Each entry below carries its recorded relative viability.
Please state the value as a number alone, without comment.

Query block: Please give the measured relative viability for this compound: O=c1cc(N2CCOCC2)oc2c(-c3cccc4c3sc3ccccc34)cccc12 + COc1cccc2cc(-c3nc([C@H]4CC[C@H](C(=O)O)CC4)n4ncnc(N)c34)[nH]c12 [OSI-027] (partner 0.5 µM)
Result block: 0.33

Next up:
Query block: Please give the measured relative viability for this compound: O=c1cc(N2CCOCC2)oc2c(-c3cccc4c3sc3ccccc34)cccc12 + Cc1nc(Nc2ncc(C(=O)Nc3c(C)cccc3Cl)s2)cc(N2CCN(CCO)CC2)n1 [Dasatinib] (partner 0.075 µM)
Result block: 0.372

----------
System: NCI-H441
Experiment: relative viability (nuclei count vs DMSO), 5 days (fraction); higher = more cells survive
Conditions: first compound 0.8 µM
attribute-measured: relative viability
Please state the value as a number alone, without comment.

Example molecules with recorded relative viability:
Query block: Please give the measured relative viability for this molecule: O=c1cc(-c2cccc3c2Sc2ccccc2S3)oc(N2CCOCC2)c1 + CC(=O)c1c(C)c2cnc(Nc3ccc(N4CCNCC4)cn3)nc2n(C2CCCC2)c1=O [Palbociclib] (partner 0.5 µM)
Result block: 0.215

Query block: Please give the measured relative viability for this molecule: O=c1cc(-c2cccc3c2Sc2ccccc2S3)oc(N2CCOCC2)c1 + O=C(CCCCCCC(=O)Nc1ccccc1)NO [Vorinostat] (partner 1 µM)
Result block: 1.14

Query block: Please give the measured relative viability for this molecule: O=c1cc(-c2cccc3c2Sc2ccccc2S3)oc(N2CCOCC2)c1 + C[C@@H](Oc1cc(-c2cnn(C3CCNCC3)c2)cnc1N)c1c(Cl)ccc(F)c1Cl [Crizotinib] (partner 1 µM)
Result block: 0.779

Query block: Please give the measured relative viability for this molecule: O=c1cc(-c2cccc3c2Sc2ccccc2S3)oc(N2CCOCC2)c1 + N=C(N)NC(=N)NCCc1ccccc1 [Phenformin] (partner 250 µM)
Result block: 0.895

Query block: Please give the measured relative viability for this molecule: O=c1cc(-c2cccc3c2Sc2ccccc2S3)oc(N2CCOCC2)c1 + Nc1nc2[nH]cc(CCc3ccc(C(=O)N[C@@H](CCC(=O)O)C(=O)O)cc3)c2c(=O)[nH]1 [Pemetrexed] (partner 0.2 µM)
Result block: 0.255

Query block: Please give the measured relative viability for this molecule: COc1nc(C)cnc1NS(=O)(=O)c1cccnc1-c1ccc(-c2nnco2)cc1 [Zibotentan] + N=C(N)NC(=N)NCCc1ccccc1 [Phenformin] (partner 250 µM)
Result block: 0.926

Query block: Please give the measured relative viability for this molecule: O=c1cc(-c2cccc3c2Sc2ccccc2S3)oc(N2CCOCC2)c1 + CS(=O)(=O)N1CCN(Cc2cc3nc(-c4cccc5[nH]ncc45)nc(N4CCOCC4)c3s2)CC1 [Pictilisib] (partner 1 µM)
Result block: 0.513

Query block: Please give the measured relative viability for this molecule: O=c1cc(-c2cccc3c2Sc2ccccc2S3)oc(N2CCOCC2)c1 + CC(C)C[C@H](NC(=O)[C@H](Cc1ccccc1)NC(=O)c1cnccn1)B(O)O [Bortezomib] (partner 0.002 µM)
Result block: 0.98

Query block: Please give the measured relative viability for this molecule: COc1nc(C)cnc1NS(=O)(=O)c1cccnc1-c1ccc(-c2nnco2)cc1 [Zibotentan] + C[C@@H](Oc1cc(-c2cnn(C3CCNCC3)c2)cnc1N)c1c(Cl)ccc(F)c1Cl [Crizotinib] (partner 1 µM)
Result block: 0.982

Query block: Please give the measured relative viability for this molecule: O=c1cc(-c2cccc3c2Sc2ccccc2S3)oc(N2CCOCC2)c1 + Nc1ncn([C@H]2C[C@H](O)[C@@H](CO)O2)c(=O)n1 [Decitabine] (partner 2 µM)
Result block: 0.223

Next up:
Query block: Please give the measured relative viability for this molecule: O=c1cc(-c2cccc3c2Sc2ccccc2S3)oc(N2CCOCC2)c1 + COc1cccc2cc(-c3nc([C@H]4CC[C@H](C(=O)O)CC4)n4ncnc(N)c34)[nH]c12 [OSI-027] (partner 0.5 µM)
Result block: 0.671

----------
Tested on: NCI-H1650
Assay: relative viability (nuclei count vs DMSO), 5 days (fraction); higher = more cells survive
Conditions: first compound 1 µM
attribute-measured: relative viability
Please state the value as a number alone, without comment.

Query block: Please give the measured relative viability for this compound: CCN(CC)CCCCNc1ncc2cc(-c3cc(OC)cc(OC)c3)c(NC(=O)NC(C)(C)C)nc2n1 + CS(=O)(=O)CCNCc1ccc(-c2ccc3ncnc(Nc4ccc(OCc5cccc(F)c5)c(Cl)c4)c3c2)o1 [Lapatinib] (partner 2 µM)
Result block: 0.242

Query block: Please give the measured relative viability for this compound: CCN(CC)CCCCNc1ncc2cc(-c3cc(OC)cc(OC)c3)c(NC(=O)NC(C)(C)C)nc2n1 + O=C(c1cc(Cc2n[nH]c(=O)c3ccccc23)ccc1F)N1CCN(C(=O)C2CC2)CC1 [Olaparib] (partner 8 µM)
Result block: 0.676

Query block: Please give the measured relative viability for this compound: O=c1cc(N2CCOCC2)oc2c(-c3cccc4c3sc3ccccc34)cccc12 + CC1(C)CCC(c2ccc(Cl)cc2)=C(CN2CCN(c3ccc(C(=O)NS(=O)(=O)c4ccc(N[C@H](CCN5CCOCC5)CSc5ccccc5)c(S(=O)(=O)C(F)(F)F)c4)cc3)CC2)C1 [Navitoclax] (partner 0.5 µM)
Result block: 1.07

Next up:
Query block: Please give the measured relative viability for this compound: O=c1cc(N2CCOCC2)oc2c(-c3cccc4c3sc3ccccc34)cccc12 + CC(C)C[C@H](NC(=O)[C@H](Cc1ccccc1)NC(=O)c1cnccn1)B(O)O [Bortezomib] (partner 0.002 µM)
Result block: 0.175

----------
Tested on: NCI-H1975
Experiment: relative viability (nuclei count vs DMSO), 5 days (fraction); higher = more cells survive
Details: first compound 0.3162 µM
Each entry below carries its recorded relative viability.

Example compounds with recorded relative viability:
Query block: Please give the measured relative viability for this compound: CCN(CC)CCCCNc1ncc2cc(-c3cc(OC)cc(OC)c3)c(NC(=O)NC(C)(C)C)nc2n1 + COc1cc2c(Oc3ccc(NC(=O)C4(C(=O)Nc5ccc(F)cc5)CC4)cc3F)ccnc2cc1OCCCN1CCOCC1 [Foretinib] (partner 0.25 µM)
Result block: 1.04

Query block: Please give the measured relative viability for this compound: O=c1cc(N2CCOCC2)oc2c(-c3cccc4c3sc3ccccc34)cccc12 + COc1cc2c(Oc3ccc(NC(=O)C4(C(=O)Nc5ccc(F)cc5)CC4)cc3F)ccnc2cc1OCCCN1CCOCC1 [Foretinib] (partner 0.25 µM)
Result block: 0.927

Query block: Please give the measured relative viability for this compound: CCN(CC)CCCCNc1ncc2cc(-c3cc(OC)cc(OC)c3)c(NC(=O)NC(C)(C)C)nc2n1 + Nc1ncn([C@H]2C[C@H](O)[C@@H](CO)O2)c(=O)n1 [Decitabine] (partner 2 µM)
Result block: 0.389

Query block: Please give the measured relative viability for this compound: O=c1cc(N2CCOCC2)oc2c(-c3cccc4c3sc3ccccc34)cccc12 + O=C(CCCCCCC(=O)Nc1ccccc1)NO [Vorinostat] (partner 1 µM)
Result block: 0.641

Query block: Please give the measured relative viability for this compound: CCN(CC)CCCCNc1ncc2cc(-c3cc(OC)cc(OC)c3)c(NC(=O)NC(C)(C)C)nc2n1 + CC(C)C[C@H](NC(=O)[C@H](Cc1ccccc1)NC(=O)c1cnccn1)B(O)O [Bortezomib] (partner 0.002 µM)
Result block: 0.451

Query block: Please give the measured relative viability for this compound: CCN(CC)CCCCNc1ncc2cc(-c3cc(OC)cc(OC)c3)c(NC(=O)NC(C)(C)C)nc2n1 + O=C(CCCCCCC(=O)Nc1ccccc1)NO [Vorinostat] (partner 1 µM)
Result block: 0.78

Query block: Please give the measured relative viability for this compound: CCN(CC)CCCCNc1ncc2cc(-c3cc(OC)cc(OC)c3)c(NC(=O)NC(C)(C)C)nc2n1 + CS(=O)(=O)CCNCc1ccc(-c2ccc3ncnc(Nc4ccc(OCc5cccc(F)c5)c(Cl)c4)c3c2)o1 [Lapatinib] (partner 2 µM)
Result block: 1.12

Query block: Please give the measured relative viability for this compound: O=c1cc(N2CCOCC2)oc2c(-c3cccc4c3sc3ccccc34)cccc12 + Nc1ncn([C@H]2C[C@H](O)[C@@H](CO)O2)c(=O)n1 [Decitabine] (partner 2 µM)
Result block: 0.371

Query block: Please give the measured relative viability for this compound: O=c1cc(N2CCOCC2)oc2c(-c3cccc4c3sc3ccccc34)cccc12 + Cc1nc(Nc2ncc(C(=O)Nc3c(C)cccc3Cl)s2)cc(N2CCN(CCO)CC2)n1 [Dasatinib] (partner 0.075 µM)
Result block: 0.378

Next up:
Query block: Please give the measured relative viability for this compound: O=c1cc(N2CCOCC2)oc2c(-c3cccc4c3sc3ccccc34)cccc12 + CC(C)C[C@H](NC(=O)[C@H](Cc1ccccc1)NC(=O)c1cnccn1)B(O)O [Bortezomib] (partner 0.002 µM)
Result block: 0.349
